Conditions: 308.15 K; Liquid
measurement-kind: vapor or sublimation pressure (kPa)
Reply with just the number (in kPa).

compound: O=C1CCCC1 [cyclopentanone]
output-unit: kPa
vapor or sublimation pressure: 2.8
//
compound: CCCCCl [1-chlorobutane]
output-unit: kPa
vapor or sublimation pressure: 21.32
//
compound: ClCCCCl [1,3-dichloropropane]
output-unit: kPa
vapor or sublimation pressure: 4.48

Alright, here's another compound for you.
Request: What does the record list as vapor or sublimation pressure for ClCCCCCl [1,4-dichlorobutane] ?
Response: 1.39

====

Assay: refractive index (Na D-line) (dimensionless)
Details: 298.15 K; 101.33 kPa; Liquid; Standard Abbe refractometry
± gives the expanded uncertainty stated by the source.
measurement-kind: refractive index

Check out these entries, answers already filled in.
compound: CCCCCl [1-chlorobutane]
refractive index: 1.3991 ± 0.0007
--
compound: ClCCCCCl [1,4-dichlorobutane]
refractive index: 1.4519 ± 0.0007
--
compound: O=C1CCCC1 [cyclopentanone]
refractive index: 1.4347 ± 0.0007

// switching to the query compound
Request: If you can, please state the reported refractive index value of ClCCCCl [1,3-dichloropropane] .
Response: 1.4459 ± 0.0007
